These data points were gathered from PubChem BioAssay AID2596.

- tested on: Lysosomal acid glucosylceramidase (Homo sapiens)
- test details: qHTS Assay for Inhibitors and Activators of N370S glucocerebrosidase as a Potential Chaperone Treatment of Gaucher Disease: Purified N370S Glucocerebrosidase Cleavage of Glucosylceramide
- measurement context: purified N370S GCase; series mostly up to 77.6 µM
Inconclusive results are not listed. Active and inactive are the calls of the source. The call rests on the fitted dose curve; in most records, active means well fitted inhibition curve with a large enough effect; inconclusive means small, poorly fitted or top-dose-only effect, or effect the other way; inactive means flat fitted curve, though single readings scatter.
Outcome codes: 1 (yes) for active, 0 (no) for inactive

# molecule, label class
data = [
    ("c1ccc2c(NCC3CCCO3)nc(N3CCOCC3)nc2c1 (stereo not given)", "0 (no)"),
    ("COc1ccc(S(=O)(=O)N2CCN(c3nc(-c4cccs4)nc4ccccc34)CC2)cc1", "0 (no)"),
    ("N=c1c2c(-c3ccccc3)c(-c3ccccc3)n(Cc3ccco3)c2ncn1CCCn1ccnc1", "0 (no)"),
    ("O=S(=O)(c1ccc2c(c1)OCCO2)N1CCN(c2nc(-c3cccs3)nc3ccccc23)CC1", "0 (no)"),
    ("COc1cccc(S(=O)(=O)N2CCN(c3nc(-c4cccs4)nc4ccccc34)CC2)c1", "0 (no)"),
    ("Cc1cc(C)n2ncc(C(=O)Nc3cccc(O)c3)c2n1", "0 (no)"),
    ("O=C(c1ccc2c(c1)OCCO2)N1CCN(c2nc(-c3cccs3)nc3ccccc23)CC1", "0 (no)"),
    ("CCCNC(=O)COC(=O)c1ccccc1OCC(=O)Nc1ccc(Br)cc1", "0 (no)"),
    ("Cc1ccc(NC(=O)COc2ccccc2C(=O)Nc2ccccc2)cc1Cl", "0 (no)"),
    ("COc1cccc(CN(C)c2nc(-c3cccs3)nc3ccccc23)c1", "0 (no)"),
    ("Cc1cc(C)cc(N(CC(=O)NC2CCC(C)CC2)S(=O)(=O)c2c(C)[nH]c(=O)[nH]c2=O)c1 (stereo not given)", "1 (yes)"),
    ("CCC(=O)OCCNc1nc(-c2ccccc2)nc2ccccc12", "0 (no)"),
    ("Cc1cc(C)cc(N(CC(=O)NC2CCCCCC2)S(=O)(=O)c2c(C)[nH]c(=O)[nH]c2=O)c1", "1 (yes)"),
    ("Cc1ccccc1-c1nccc(NCc2cccs2)n1", "0 (no)"),
    ("O=S(=O)(c1ccc(Cl)cc1)N1CCN(c2nc(Nc3cc(Cl)ccc3O)nc3ccccc23)CC1", "1 (yes)"),
    ("Cc1ccc(-c2nc(N3CCN(S(=O)(=O)c4ccc(F)cc4)CC3)c3ccc(Cl)cc3n2)cc1", "0 (no)"),
    ("O=C(Nc1cnn(Cc2ccc(F)cc2)c1)c1cnn2c(C(F)F)cc(-c3ccccc3)nc12", "0 (no)"),
    ("COc1ccc(-c2nc(N3CCN(S(=O)(=O)c4ccccc4)CC3)c3ccccc3n2)cc1", "0 (no)"),
    ("O=S(=O)(c1ccc(F)cc1)N1CCN(c2nc(-c3ccc(F)cc3)nc3cc(Cl)ccc23)CC1", "0 (no)"),
    ("COc1ccc(-c2nc(N3CCN(S(=O)(=O)c4ccc(C)cc4)CC3)c3ccccc3n2)cc1", "0 (no)"),
]

====

- tested on: Lysosomal acid glucosylceramidase (Homo sapiens)
- test details: qHTS Assay for Inhibitors and Activators of N370S glucocerebrosidase as a Potential Chaperone Treatment of Gaucher Disease: Purified N370S Glucocerebrosidase Cleavage of Glucosylceramide
- measurement context: purified N370S GCase; series mostly up to 77.6 µM
Records with an inconclusive call do not appear. Calls of active or inactive are those of the source. Calls come from the whole dose curve; as a rule, active = well fitted inhibition curve with a large enough effect; inconclusive = small, poorly fitted or top-dose-only effect, or effect the other way; inactive = flat fitted curve, though single readings scatter.

# compound, tested on, Potency
rows = [
    ("CCC(C)c1ccc(NC(=O)c2cnn3c(C(F)F)cc(C)nc23)cc1 (stereo not drawn)", "Lysosomal acid glucosylceramidase (Homo sapiens)", "inactive"),
    ("Nc1nc(-c2ccccc2)c(N=Nc2ccc(Cl)cc2)s1", "Lysosomal acid glucosylceramidase (Homo sapiens)", "inactive"),
    ("CC(C)(C)C(=O)OCCNc1nc(-c2ccccc2)nc2ccccc12", "Lysosomal acid glucosylceramidase (Homo sapiens)", "39.8 µM (active)"),
]
